The origin of these recorded values is ChEMBL document CHEMBL1201862.

# System: HCT-15
# run description: NCI tumour cell line growth inhibition, 48 h
assay readout: GI50

// worked examples, GI50 included
Which GI50 reading was recorded for the compound "COc1cc2cnc3c4cc(OC)c(OC(C)C)cc4ccc3c2cc1OC" ?
> 100 µM

Consider the compound shown here: CC1(C)C/N=C/C(C)(OCc2ccccc2)C(=O)NC(C)(C)C/N=C/C(C)(OCc2ccccc2)C(=O)N1 (stereo not given) What is its recorded GI50?
> 10 µM

Fill in: GI50 of "OCCCOC(c1ccccc1)(c1ccccc1)c1ccccc1" is ___
> 100 µM

Reported GI50 for CCC(C)C1=C(OC(C)=O)[N+]2([O-])Oc3ccc(-c4c(OC(C)=O)c(OC(C)=O)c(-c5ccc(OC(C)=O)cc5)c(OC(C)=O)c4OC(C)=O)cc3OC2(C(C)CC)C(=O)N1OC(C)=O (stereo not given) : what is it?
22.5 µM

Proceed to the following item.
Requested read-out: GI50. Entry: "COc1ccc2c(c1)c1c(n2CCN(C)C)-c2ccccc2CC1"
13.7 µM
